Overview of reported inhibition across a group of compounds:
biological target: 17-beta-hydroxysteroid dehydrogenase type 2 (Homo sapiens) (UniProt P37059); assay: Inhibition of [3H]E2 binding to human placental 17beta-HSD2 at 1 uM after 20 mins
Sequence (P37059 whole entry): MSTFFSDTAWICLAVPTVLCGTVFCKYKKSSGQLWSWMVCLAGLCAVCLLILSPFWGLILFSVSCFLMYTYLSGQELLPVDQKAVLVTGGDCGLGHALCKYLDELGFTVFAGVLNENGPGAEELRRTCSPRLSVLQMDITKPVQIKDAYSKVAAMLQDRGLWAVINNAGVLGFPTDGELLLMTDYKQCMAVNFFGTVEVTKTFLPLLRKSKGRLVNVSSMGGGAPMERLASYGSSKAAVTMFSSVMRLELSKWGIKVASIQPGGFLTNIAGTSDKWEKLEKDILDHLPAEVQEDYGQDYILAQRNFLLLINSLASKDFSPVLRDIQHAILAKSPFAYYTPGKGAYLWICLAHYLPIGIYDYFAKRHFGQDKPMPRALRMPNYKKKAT
experimental_readout: inhibition (%)

                        structure_as_smiles                                 tested_on  sign_qualifier  val
0  O=C(Nc1cccc(-c2ccc3c(O)cccc3c2)c1)c1ccccc1  17-beta-hydroxysteroid dehydrogenase type 2 (Homo sapiens) (UniProt P37059)               <   10
1            CC(=O)Nc1cccc(-c2ccc(CO)cc2)c1  17-beta-hydroxysteroid dehydrogenase type 2 (Homo sapiens) (UniProt P37059)               <   10
2  Cc1cccc(S(=O)(=O)Nc2ccc(-c3ccc(CO)cc3)cc2)c1  17-beta-hydroxysteroid dehydrogenase type 2 (Homo sapiens) (UniProt P37059)               =   12
3  COc1ccc(C(=O)N(C)c2cccc(-c3ccc(CO)cc3)c2)cc1  17-beta-hydroxysteroid dehydrogenase type 2 (Homo sapiens) (UniProt P37059)               =   14
4         CS(=O)(=O)Nc1ccc(-c2ccc(O)cc2)cc1  17-beta-hydroxysteroid dehydrogenase type 2 (Homo sapiens) (UniProt P37059)               <   10
